Test system: PrP^Sc load in ScN2a-cl3 cells
Type: cell-based, murine
assay-metric: Antiprion activity (in words)

>>> result("Cc1csc(Nc2cc3ccccc3cn2)n1 [Compound 36]")
"inactive"
>>> result("Cc1ccc(Nc2nc(C)cs2)nc1 [Compound 29]")
"inactive"
>>> result("FC(F)(F)Oc1ccc(-c2csc(Nc3cc4ccccc4cn3)n2)cc1 [Compound 31]")
"inactive"
